# target system: UniProt P18031
# Sequence (P18031 whole entry): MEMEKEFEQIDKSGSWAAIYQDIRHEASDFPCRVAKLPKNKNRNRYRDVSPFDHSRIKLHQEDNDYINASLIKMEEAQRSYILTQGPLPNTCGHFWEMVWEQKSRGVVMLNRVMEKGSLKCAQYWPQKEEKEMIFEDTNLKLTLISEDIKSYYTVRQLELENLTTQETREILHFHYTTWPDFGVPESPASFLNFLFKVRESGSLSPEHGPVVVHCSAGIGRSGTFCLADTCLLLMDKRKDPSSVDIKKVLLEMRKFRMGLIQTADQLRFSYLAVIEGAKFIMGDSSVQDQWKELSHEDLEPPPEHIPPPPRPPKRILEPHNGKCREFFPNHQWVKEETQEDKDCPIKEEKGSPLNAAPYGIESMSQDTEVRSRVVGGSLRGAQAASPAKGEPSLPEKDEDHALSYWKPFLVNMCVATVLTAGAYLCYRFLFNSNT
test readout: pIC50
Answers are plain numbers, as −log10 of the molar value.

Specify pIC50 for `C=C(C)C#COc1cc(C(N)=O)cc2c(Br)c(C(F)(F)P(=O)(O)O)sc12` , system UniProt P18031.
6.88

----------
# System: B16-F10
# test summary: cells
# condition label: Mus musculus
# Description: Antiproliferative activity against mouse B16-F10 cells assessed as reduction in cell growth
test readout: pIC50
One number for each entry, as −log10 of the molar value.

Consider the molecule `CC(C)(O)CCOc1ccc2cc(O)c(N3CC(=O)NS3(=O)=O)c(F)c2c1` and give its recorded pIC50.
5.24

----------
Quick record of Ki values for Tyrosine-protein phosphatase non-receptor type 2 (Homo sapiens).

Example compounds with recorded Ki:
Cc1ccnc(Nc2cc(O)c(N3CC(=O)NS3(=O)=O)c(F)c2)n1 ≥ 100 nM
CC(C)Cc1cnc(Nc2cc(O)c(N3CC(=O)NS3(=O)=O)c(F)c2)nc1O < 1 nM

Consider the additional compound presented here.
Return Ki for the following compound: `Cc1cnc(Nc2cc(O)c(N3CC(=O)NS3(=O)=O)c(F)c2)nc1O`
< 1 nM

----------
# Test system: B16-F10
# test summary: cells
# condition label: Mus musculus
# Description: Antiproliferative activity against mouse B16-F10 cells
Lab note - cut at 1000 nM for IC50: y if strictly below, n if not.

The examples below pair each entry with its known result.
compound	target system	class assignment
O=C1CN(c2c(O)cc3c(c2F)C[C@H](NCCC2CC2)CC3)S(=O)(=O)N1	B16-F10	y
O=C1CN(c2c(O)cc3c(c2F)C[C@H](NCCCC(F)(F)F)CC3)S(=O)(=O)N1	B16-F10	y
CC(C)CCN[C@@H]1CCc2cc(O)c(N3CC(=O)NS3(=O)=O)c(F)c2C1	B16-F10	y
COc1cc(C)nc(NCc2cc(F)c(N3CC(=O)NS3(=O)=O)c3[nH]ncc23)c1	B16-F10	y
N[C@@H]1CCc2cc(O)c(N3CC(=O)NS3(=O)=O)c(F)c2CC1	B16-F10	n

Is it true that IC50 reported for `Cc1cnnc(NCc2cc(O)c(N3CC(=O)NS3(=O)=O)c(F)c2)c1` is less than 1000 nM?
y

Please check: IC50 for `COc1cccc(NCc2cc(O)c(N3CC(=O)NS3(=O)=O)c(F)c2)n1` , strictly under 1000 nM or not?
n

Strictly below 1000 nM in IC50? `CC(C)CCN[C@@H]1CNc2cc(O)c(N3CC(=O)NS3(=O)=O)c(F)c2C1`
n

Given the entry `COc1ccnc(NCc2cc(O)c(N3CC(=O)NS3(=O)=O)c(F)c2)c1` , would its reported IC50 be below 1000 nM?
y

Take the compound CC1CCN=C(Nc2cc(O)c(N3CC(=O)NS3(=O)=O)c(F)c2)N1 (stereo not given) and say whether its IC50 is less than 1000 nM.
n

Does `CC(C)CCN[C@@H]1C[C@H]2C[C@@H]1c1c2cc(O)c(N2CC(=O)NS2(=O)=O)c1F` have IC50 strictly under 1000 nM?
n

Determine if `O=C1CN(c2c(O)cc3c(c2F)C[C@H](NCCCC(F)F)CC3)S(=O)(=O)N1` shows IC50 strictly lower than 1000 nM.
y

Consider the compound `Cc1cnc(Nc2cc(O)c(N3CC(=O)NS3(=O)=O)c(F)c2)nc1O` . Is its IC50 strictly less than 1000 nM?
n

Check if IC50 falls below 1000 nM for `CN(Cc1cc(O)c(N2CC(=O)NS2(=O)=O)c(F)c1)C1CCC(C)(C)CC1` .
n

Just wondering, is IC50 of `Cc1ccnc(Nc2cc(O)c(N3CC(=O)NS3(=O)=O)c(F)c2)n1` below 1000 nM?
n

Threshold test, IC50 < 1000 nM: `Cn1ccnc1NCc1cc(O)c(N2CC(=O)NS2(=O)=O)c(F)c1`
y

----------
# target system: Tyrosine-protein phosphatase non-receptor type 2 (Homo sapiens)
# Sequence (P17706 whole entry): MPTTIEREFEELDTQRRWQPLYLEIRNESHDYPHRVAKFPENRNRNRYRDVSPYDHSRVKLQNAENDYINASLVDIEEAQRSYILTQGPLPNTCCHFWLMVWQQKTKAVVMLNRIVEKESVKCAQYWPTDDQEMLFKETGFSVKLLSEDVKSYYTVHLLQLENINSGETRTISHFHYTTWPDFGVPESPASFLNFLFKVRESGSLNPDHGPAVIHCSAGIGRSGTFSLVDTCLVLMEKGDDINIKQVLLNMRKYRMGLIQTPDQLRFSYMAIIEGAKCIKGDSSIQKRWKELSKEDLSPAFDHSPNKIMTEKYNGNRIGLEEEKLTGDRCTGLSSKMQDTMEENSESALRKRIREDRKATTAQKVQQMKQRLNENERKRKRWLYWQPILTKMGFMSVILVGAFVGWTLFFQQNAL
test readout: pIC50
Give bare numbers, as −log10 of the molar value.

Worked cases, pIC50 given:
compound	observed
O=C1CN(c2c(O)cc3ccccc3c2F)S(=O)(=O)N1	7.94
CCN1CN(Cc2ccc(Br)cc2)C(=O)S1	6.28
O=C1CN(c2c(O)cc3c(c2F)C[C@H](NCCCC(F)(F)F)CC3)S(=O)(=O)N1	9.00
CCN1CN(Cc2ccc(Cl)cc2)C(=O)S1	6.48
O=C(O)CN1CCN(CCN2CN(Cc3ccccc3)C(=O)S2)CC1	5.06

Batch request: pIC50 for each of the following compounds.
1. O=C1SN(CCOc2ccc([N+](=O)[O-])cc2)CN1Cc1ccccc1
2. CCN1CCc2cc(O)c(N3CC(=O)NS3(=O)=O)c(F)c2CC1C (stereo not drawn)

[5.82, 6.67]

# batch size: 5; output pIC50 per entry
1. O=C1CN(c2c(O)cc(NC(=O)N[C@H](CO)c3ccccc3)cc2F)S(=O)(=O)N1 (racemic)
2. O=C1CN(c2c(O)cc3c(c2F)C[C@H](NCCC(F)F)CC3)S(=O)(=O)N1
3. O=C1CN(c2c(O)cc3c(c2F)CNCCC3)S(=O)(=O)N1
4. CCN1CN(Cc2ccc(I)cc2)C(=O)S1
5. N[C@@H]1CCc2cc(O)c(N3CC(=O)NS3(=O)=O)c(F)c2CC1

1. 8.30
2. 9.00
3. 5.72
4. 6.43
5. 8.25

----------
# target system: Protein cereblon/Tyrosine-protein phosphatase non-receptor type 2 (Homo sapiens, UniProt P17706+Q96SW2)
# condition label: hek293t
# Description: PROTAC activity at PTPN2/CRBN in HEK293T cells assessed as protein degradation measured for 48 hrs by Western blot analysis
What DC50 was measured for each of the following?

compound	observed
Cn1c(=O)n(C2CCC(=O)NC2=O)c2ccc(C3CCN(C(=O)CNc4ccc5c(F)c(N6CC(=O)NS6(=O)=O)c(O)cc5c4)CC3F)cc21 (centres undefined)	< 10 nM

Could I get DC50 for every one of these entries?
1. O=C(CCOCCn1cc(C2(Nc3cccc4c3C(=O)N(C3CCC(=O)NC3=O)C4=O)CC2)nn1)NCCOc1ccc2cc(O)c(N3CC(=O)NS3(=O)=O)c(F)c2c1 (centres undefined)
2. Cc1nn(CC(=O)Nc2ccc3c(F)c(N4CC(=O)NS4(=O)=O)c(O)cc3c2)c(C)c1-c1ccc2c(c1)n(C)c(=O)n2C1CCC(=O)NC1=O (centres undefined)
3. Cn1c(=O)n(C2CCC(=O)NC2=O)c2cccc(C3CCN(CCOCCC(=O)NCCOc4ccc5cc(O)c(N6CC(=O)NS6(=O)=O)c(F)c5c4)CC3)c21 (centres undefined)

> 1000 nM
< 50 nM
> 1000 nM

----------
# Tested on: B16-F10
# test summary: cells
# condition label: Mus musculus
Consider the following molecules; for each one, report its IC50.

Check out these entries, answers already filled in.
molecule	test readout	observed
CC(C)CCN[C@H]1CCc2cc(O)c(N3CC(=O)NS3(=O)=O)c(F)c2C1	IC50	1 µM
Cc1cc(O)nc(Nc2cc(O)c(N3CC(=O)NS3(=O)=O)c(F)c2)n1	IC50	< 5 µM
O=C1CN(c2c(O)cc(NC(=O)N[C@H](CO)c3ccccc3)cc2F)S(=O)(=O)N1 (racemic)	IC50	< 5 µM

State recorded IC50 with B16-F10, entry `CC(C)CCNC(=O)Nc1cc(O)c(N2CC(=O)NS2(=O)=O)c(F)c1` , no comment.
< 5 µM

The measured values listed here are drawn from ChEMBL document CHEMBL6121069.
